All values here come from patent US20240067617A1.

# experimental.target: hLBAT (Homo sapiens)
# Construct: kept under Geneticin selection
# experiment: LBAT (h/m) assay: 3H-taurocholic acid uptake in human LBAT-overexpressing cells
# details: 0.3 μM 3H-taurocholic acid + 7.5 μM cold taurocholic acid, 20 minutes at 37° C.
pIC50: −log10 of the molar value.
Reported pIC50 values for the following compounds.

compound	pIC50
CCCCC1(CC)CN(c2ccccc2)c2cc(S(C)(=O)=O)c(CSCC(=O)O)cc2S(=O)(=O)N1 (single isomer, unassigned) [48, enantiomer 1]	< 6.00
CCCCC1(CC)CN(c2ccccc2)c2cc(OC)c(CSCC(=O)O)cc2S(=O)(=O)C1 (single isomer, unassigned) [14, enantiomer 2]	< 6.00
CCCCC1(CC)CN(c2ccc(F)cc2)c2cc(OC)c(CSCC(=O)O)cc2S(=O)(=O)C1 (single isomer, unassigned) [40, enantiomer 2]	< 5.00
CCCCC1(CC)CN(c2ccccc2)c2cc(OC)c(CSC(C)(C)C(=O)O)cc2S(=O)(=O)C1 (racemic) [Example 25]	6.87
CCCCC1CN(c2ccccc2)c2cc(SC)c(CSCC(=O)O)cc2S(=O)(=O)N1C (racemic) [Example 11]	7.47
CCCCC1(CC)CN(c2ccccc2)c2cc(OC)c(CSCC(=O)O)cc2S(=O)(=O)N1 (single isomer, unassigned) [45, enantiomer 1]	< 6.00

Next compound, pIC50 to be filled in.
Looking for the measured pIC50 of CCCCC1(CC)CN(c2ccc(F)cc2)c2cc(OC)c(CSCC(=O)O)cc2S(=O)(=O)C1 (single isomer, unassigned) [40, enantiomer 1] , can you help?
< 5.00

###

# experimental.target: hIBAT (Homo sapiens, UniProt Q12908)
# Construct: kept under Puromycin selection
# Sequence (Q12908 whole entry): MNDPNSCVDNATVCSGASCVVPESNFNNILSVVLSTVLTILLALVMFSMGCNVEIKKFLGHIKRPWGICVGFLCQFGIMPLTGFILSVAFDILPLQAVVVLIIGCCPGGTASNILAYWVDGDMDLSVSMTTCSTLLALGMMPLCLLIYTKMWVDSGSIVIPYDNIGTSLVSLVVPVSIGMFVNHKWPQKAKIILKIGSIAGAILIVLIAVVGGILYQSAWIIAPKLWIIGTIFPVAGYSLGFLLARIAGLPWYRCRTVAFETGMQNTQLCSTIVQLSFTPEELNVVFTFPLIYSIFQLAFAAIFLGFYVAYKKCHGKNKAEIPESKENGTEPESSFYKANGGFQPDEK
# experiment: IBAT (h/m) assay: 3H-taurocholic acid uptake in human IBAT-overexpressing cells
# details: 0.25 μM 3H-taurocholic acid + 5 μM cold taurocholic acid, 20 minutes at 37° C., highest test concentration 10 μM
measure.name: IC50

Reference set (2 entries):
molecule	measure.name	test.value
CCCCC1(CC)CN(c2ccccc2)c2cc(SC)c(CSCC(=O)O)cc2S(=O)(=O)N1C (single isomer, unassigned) [21, enantiomer 1]	IC50	> 0.243 µM
CCCCC1CN(c2ccccc2)c2cc(OC)c(CSC(C)(C)C(=O)O)cc2S(=O)(=O)N1C (single isomer, unassigned) [38, enantiomer 1]	IC50	> 10 µM

Next molecule, IC50 to be filled in.
Looking for the measured IC50 of CCCCC1CN(c2ccc(F)cc2)c2cc(OC)c(CSCC(=O)O)cc2S(=O)(=O)N1C (single isomer, unassigned) [30, enantiomer 1] , can you help?
> 10 µM

###

# experimental.target: hLBAT (Homo sapiens)
# Construct: kept under Geneticin selection
# experiment: LBAT (h/m) assay: 3H-taurocholic acid uptake in human LBAT-overexpressing cells
# details: 0.3 μM 3H-taurocholic acid + 7.5 μM cold taurocholic acid, 20 minutes at 37° C.
pIC50: −log10 of the molar value.
Reported pIC50 values for the following compounds.

Reference set (2 entries):
compound	pIC50
CCCCC1(CC)CN(c2ccc(F)cc2)c2cc(OC)c(CSCC(=O)O)cc2S(=O)(=O)C1 (racemic) [Example 39]	< 5.48
CCCCC1CN(c2ccc(F)cc2)c2cc(OC)c(CSCC(=O)O)cc2S(=O)(=O)N1C (single isomer, unassigned) [30, enantiomer 1]	< 5.00

Next compound, pIC50 to be filled in.
Any idea what pIC50 came out for CCCCC1CN(c2ccccc2)c2cc(SC)c(CSCC(=O)O)cc2S(=O)(=O)N1C (single isomer, unassigned) [12, enantiomer 1] on hLBAT (Homo sapiens)?
< 5.00

###

# experimental.target: hLBAT (Homo sapiens, UniProt Q14973)
# Construct: kept under Geneticin selection
# Sequence (Q14973 whole entry): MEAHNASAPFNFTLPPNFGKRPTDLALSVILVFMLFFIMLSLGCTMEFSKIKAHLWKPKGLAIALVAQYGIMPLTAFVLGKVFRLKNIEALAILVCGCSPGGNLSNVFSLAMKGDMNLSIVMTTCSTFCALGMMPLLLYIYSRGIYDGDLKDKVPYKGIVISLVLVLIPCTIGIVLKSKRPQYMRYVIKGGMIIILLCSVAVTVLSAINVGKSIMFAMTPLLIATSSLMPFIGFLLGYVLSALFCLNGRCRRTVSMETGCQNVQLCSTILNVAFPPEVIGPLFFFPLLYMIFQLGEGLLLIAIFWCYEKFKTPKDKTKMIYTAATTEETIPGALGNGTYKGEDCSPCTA
# experiment: LBAT (h/m) assay: 3H-taurocholic acid uptake in human LBAT-overexpressing cells
# details: 0.3 μM 3H-taurocholic acid + 7.5 μM cold taurocholic acid, 20 minutes at 37° C.
Reported IC50 values for the following molecules.

Reference set (5 entries):
molecule	test.value
CCCCC1(CC)CN(c2ccc(F)cc2)c2cc(SC)c(CSC(C)(C)C(=O)O)cc2S(=O)(=O)C1 (single isomer, unassigned) [16, enantiomer 2]	220 nM
CCCCC1(CC)CN(c2ccccc2)c2cc(OC)c(CSCC(=O)O)cc2S(=O)(=O)C1 (single isomer, unassigned) [14, enantiomer 1]	> 1000 nM
CCCCC1(CC)CN(c2ccccc2)c2cc(SC)c(CSCC(=O)O)cc2S(=O)(=O)N1 (single isomer, unassigned) [10, enantiomer 1]	> 3330 nM
CCCCC1(CC)CN(c2ccccc2)c2cc(SC)c(CSCC(=O)O)cc2S(=O)(=O)N1C (stereo not drawn) [Example 20]	2510 nM
CCCCC1(C)CN(c2ccccc2)c2cc(OC)c(CSCC(=O)O)cc2S(=O)(=O)C1 (racemic) [Example 27]	> 10000 nM

Next molecule, IC50 to be filled in.
Looking for the measured IC50 of CCCCC1(CC)CN(c2ccc(F)cc2)c2cc(SC)c(CSCC(=O)O)cc2S(=O)(=O)C1 (racemic) [Example 6] , can you help?
> 2200 nM

###

Reported pIC50 values for the following compounds.
# experimental.target: hLBAT (Homo sapiens)
# Construct: kept under Geneticin selection
# experiment: LBAT (h/m) assay: 3H-taurocholic acid uptake in human LBAT-overexpressing cells
# details: 0.3 μM 3H-taurocholic acid + 7.5 μM cold taurocholic acid, 20 minutes at 37° C.
pIC50: −log10 of the molar value.

compound	measure.name	test.value
CCCCC1(CC)CN(c2ccccc2)c2cc(S(C)(=O)=O)c(CSCC(=O)O)cc2S(=O)(=O)N1 (single isomer, unassigned) [48, enantiomer 2]	pIC50	< 6.00

Looking for the measured pIC50 of `CCCCC1(CCCC)CN(c2ccccc2)c2cc(OC)c(CSCC(=O)O)cc2S(=O)(=O)C1` , can you help?
< 5.48

Looking for the measured pIC50 of CCCCC1(CC)CN(c2ccccc2)c2cc(N(C)C)c(CSCC(=O)O)cc2S(=O)(=O)N1 (stereo not drawn) , can you help?
< 6.00
